# Tested on: HeLa Kyoto
# assayText: melting temperature (median over replicates), in situ; higher = more thermally stable
# experimentalParameters: cell cycle stage: mitosis
recordedEndpoint: melting temperature

Asked: Tell me melting temperature reported for MAAAVVLAAGLRAARRAVAATGVRGGQVRGAAGVTDGNEVAKAQQATPGGAAPTIFSRILDKSLPADILYEDQQCLVFRDVAPQAPVHFLVIPKKPIPRISQAEEEDQQLLGHLLLVAKQTAKAEGLGDGYRLVINDGKLGAQSVYHLHIHVLGGRQLQWPPG [HINT2]
Given back: 54.9 °C

Asked: Assign melting temperature to the following record: MAGLPRRIIKETQRLLAEPVPGIKAEPDESNARYFHVVIAGPQDSPFEGGTFKLELFLPEEYPMAAPKVRFMTKIYHPNVDKLGRICLDILKDKWSPALQIRTVLLSIQALLSAPNPDDPLANDVAEQWKTNEAQAIETARAWTRLYAMNNI [UBE2N]
Given back: 52.1 °C

Asked: For MASSSGSKAEFIVGGKYKLVRKIGSGSFGDIYLAINITNGEEVAVKLESQKARHPQLLYESKLYKILQGGVGIPHIRWYGQEKDYNVLVMDLLGPSLEDLFNFCSRRFTMKTVLMLADQMISRIEYVHTKNFIHRDIKPDNFLMGIGRHCNKLFLIDFGLAKKYRDNRTRQHIPYREDKNLTGTARYASINAHLGIEQSRRDDMESLGYVLMYFNRTSLPWQGLKAATKKQKYEKISEKKMSTPVEVLCKGFPAEFAMYLNYCRGLRFEEAPDYMYLRQLFRILFRTLNHQYDYTFDWTMLKQKAAQQAASSSGQGQQAQTPTGKQTDKTKSNMKGF [CSNK1A1] , write its melting temperature.
Given back: 50.2 °C

---

# Tested on: HeLa Kyoto
# assayText: solubility in G1/S (NP-40 vs SDS abundance) (log2 ratio); higher = more soluble
# experimentalParameters: cell cycle stage: G1/S
recordedEndpoint: solubility in G1/S (log2)
A bare number is all that is needed in reply.

Asked: Specify solubility in G1/S (log2) for MATRQRESSITSCCSTSSCDADDEGVRGTCEDASLCKRFAVSIGYWHDPYIQHFVRLSKERKAPEINRGYFARVHGVSQLIKAFLRKTECHCQIVNLGAGMDTTFWRLKDEDLLPSKYFEVDFPMIVTRKLHSIKCKPPLSSPILELHSEDTLQMDGHILDSKRYAVIGADLRDLSELEEKLKKCNMNTQLPTLLIAECVLVYMTPEQSANLLKWAANSFERAMFINYEQVNMGDRFGQIMIENLRRRQCDLAGVETCKSLESQKERLLSNGWETASAVDMMELYNRLPRAEVSRIESLEFLDEMELLEQLMRHYCLCWATKGGNELGLKEITY [LCMT1] and stop.
Given back: 0.181

Asked: Look up solubility in G1/S (log2) of MAWTKYQLFLAGLMLVTGSINTLSAKWADNFMAEGCGGSKEHSFQHPFLQAVGMFLGEFSCLAAFYLLRCRAAGQSDSSVDPQQPFNPLLFLPPALCDMTGTSLMYVALNMTSASSFQMLRGAVIIFTGLFSVAFLGRRLVLSQWLGILATIAGLVVVGLADLLSKHDSQHKLSEVITGDLLIIMAQIIVAIQMVLEEKFVYKHNVHPLRAVGTEGLFGFVILSLLLVPMYYIPAGSFSGNPRGTLEDALDAFCQVGQQPLIAVALLGNISSIAFFNFAGISVTKELSATTRMVLDSLRTVVIWALSLALGWEAFHALQILGFLILLIGTALYNGLHRPLLGRLSRGRPLAEESEQERLLGGTRTPINDAS [SLC35F6] and report it.
Given back: -0.144

Asked: Identify the reported solubility in G1/S (log2) for the following entry. MALLCYNRGCGQRFDPETNSDDACTYHPGVPVFHDALKGWSCCKRRTTDFSDFLSIVGCTKGRHNSEKPPEPVKPEVKTTEKKELCELKPKFQEHIIQAPKPVEAIKRPSPDEPMTNLELKISASLKQALDKLKLSSGNEENKKEEDNDEIKIGTSCKNGGCSKTYQGLESLEEVCVYHSGVPIFHEGMKYWSCCRRKTSDFNTFLAQEGCTKGKHMWTKKDAGKKVVPCRHDWHQTGGEVTISVYAKNSLPELSRVEANSTLLNVHIVFEGEKEFDQNVKLWGVIDVKRSYVTMTATKIEITMRKAEPMQWASLELPAAKKQEKQKDATTD [CHORDC1]
Given back: 0.0558

Asked: Tell me solubility in G1/S (log2) reported for MGSQHSAAARPSSCRRKQEDDRDGLLAEREQEEAIAQFPYVEFTGRDSITCLTCQGTGYIPTEQVNELVALIPHSDQRLRPQRTKQYVLLSILLCLLASGLVVFFLFPHSVLVDDDGIKVVKVTFNKQDSLVILTIMATLKIRNSNFYTVAVTSLSSQIQYMNTVVSTYVTTNVSLIPPRSEQLVNFTGKAEMGGPFSYVYFFCTVPEILVHNIVIFMRTSVKISYIGLMTQSSLETHHYVDCGGNSTAI [TMEM106C]
Given back: 0.121

Asked: Query solubility in G1/S (log2) for MAAIRMGKLTTMPAGLIYASVSVHAAKQEESKKQLVKPEQLPIYTAPPLQSKYVEEQPGHLQMGFASIRTATGCYIGWCKGVYVFVKNGIMDTVQFGKDAYVYLKNPPRDFLPKMGVITVSGLAGLVSARKGSKFKKITYPLGLATLGATVCYPVQSVIIAKVTAKKVYATSQQIFGAVKSLWTKSSKEESLPKPKEKTKLGSSSEIEVPAKTTHVLKHSVPLPTELSSEAKTKSESTSGATQFMPDPKLMDHGQSHPEDIDMYSTRS [APOOL]
Given back: 0.166

Asked: // Input: MGSELIGRLAPRLGLAEPDMLRKAEEYLRLSRVKCVGLSARTTETSSAVMCLDLAASWMKCPLDRAYLIKLSGLNKETYQSCLKSFECLLGLNSNIGIRDLAVQFSCIEAVNMASKILKSYESSLPQTQQVDLDLSRPLFTSAALLSACKILKLKVDKNKMVATSGVKKAIFDRLCKQLEKIGQQVDREPGDVATPPRKRKKIVVEAPAKEMEKVEEMPHKPQKDEDLTQDYEEWKRKILENAASAQKATAE [ORC6] . Output its solubility in G1/S (log2) only.
Given back: 0.47

Asked: Report solubility in G1/S (log2) for MSSFSESALEKKLSELSNSQQSVQTLSLWLIHHRKHAGPIVSVWHRELRKAKSNRKLTFLYLANDVIQNSKRKGPEFTREFESVLVDAFSHVAREADEGCKKPLERLLNIWQERSVYGGEFIQQLKLSMEDSKSPPPKATEEKKSLKRTFQQIQEEEDDDYPGSYSPQDPSAGPLLTEELIKALQDLENAASGDATVRQKIASLPQEVQDVSLLEKITDKEAAERLSKTVDEACLLLAEYNGRLAAELEDRRQLARMLVEYTQNQKDVLSEKEKKLEEYKQKLARVTQVRKELKSHIQSLPDLSLLPNVTGGLAPLPSAGDLFSTD [RPRD1B]
Given back: 0.562

Asked: Answer with the recorded solubility in G1/S (log2) of MATASPAADGGRGRPWEGGLVSWPPAPPLTLPWTWMGPSWGQHPGHWGFPALTEPSASPAAGLGIFEVRRVLDASGCSMLAPLQTGAARFSSYLLSRARKVLGSHLFSPCGVPEFCSISTRKLAAHGFGASMAAMVSFPPQRYHYFLVLDFEATCDKPQIHPQEIIEFPILKLNGRTMEIESTFHMYVQPVVHPQLTPFCTELTGIIQAMVDGQPSLQQVLERVDEWMAKEGLLDPNVKSIFVTCGDWDLKVMLPGQCQYLGLPVADYFKQWINLKKAYSFAMGCWPKNGLLDMNKGLSLQHIGRPHSGIDDCKNIANIMKTLAYRGFIFKQTSKPF [ERI3] only.
Given back: 0.0291

Asked: // fetch solubility in G1/S (log2) given entry MEEKPSGPIPDMLATAEPSSSETDKEVLSPAVPAAAPSSSMSEEPGPEQAATPPVWERGGAGGMQQGSSPAPDSCQPGPGPSPGLTSIVSGTSEDLRPPRRRPPPGKQIPCSSPGCCLSFPSVRDLAQHLRTHCPPTQSLEGKLFRCSALSCTETFPSMQELVAHSKLHYKPNRYFKCENCLLRFRTHRSLFKHLHVCAEHAQSPAPPPPPALDREPPAPERPPEVDPASAPGLPFPLLEPFTTPAPAPTGPFLPYLNPAPFGLSPPRLRPFLAAAPGPPASSAAVWKKSQGAGSSPRRPQGGSDAPSGACR [ZNF414]
Given back: -0.217
